# target or test system: NMDA receptor subunits 1A/2C (NR1A+NR2C) (Rattus norvegicus, UniProt P35439+Q00961)
# Sequence (Q00961 20-1237, other chains not shown): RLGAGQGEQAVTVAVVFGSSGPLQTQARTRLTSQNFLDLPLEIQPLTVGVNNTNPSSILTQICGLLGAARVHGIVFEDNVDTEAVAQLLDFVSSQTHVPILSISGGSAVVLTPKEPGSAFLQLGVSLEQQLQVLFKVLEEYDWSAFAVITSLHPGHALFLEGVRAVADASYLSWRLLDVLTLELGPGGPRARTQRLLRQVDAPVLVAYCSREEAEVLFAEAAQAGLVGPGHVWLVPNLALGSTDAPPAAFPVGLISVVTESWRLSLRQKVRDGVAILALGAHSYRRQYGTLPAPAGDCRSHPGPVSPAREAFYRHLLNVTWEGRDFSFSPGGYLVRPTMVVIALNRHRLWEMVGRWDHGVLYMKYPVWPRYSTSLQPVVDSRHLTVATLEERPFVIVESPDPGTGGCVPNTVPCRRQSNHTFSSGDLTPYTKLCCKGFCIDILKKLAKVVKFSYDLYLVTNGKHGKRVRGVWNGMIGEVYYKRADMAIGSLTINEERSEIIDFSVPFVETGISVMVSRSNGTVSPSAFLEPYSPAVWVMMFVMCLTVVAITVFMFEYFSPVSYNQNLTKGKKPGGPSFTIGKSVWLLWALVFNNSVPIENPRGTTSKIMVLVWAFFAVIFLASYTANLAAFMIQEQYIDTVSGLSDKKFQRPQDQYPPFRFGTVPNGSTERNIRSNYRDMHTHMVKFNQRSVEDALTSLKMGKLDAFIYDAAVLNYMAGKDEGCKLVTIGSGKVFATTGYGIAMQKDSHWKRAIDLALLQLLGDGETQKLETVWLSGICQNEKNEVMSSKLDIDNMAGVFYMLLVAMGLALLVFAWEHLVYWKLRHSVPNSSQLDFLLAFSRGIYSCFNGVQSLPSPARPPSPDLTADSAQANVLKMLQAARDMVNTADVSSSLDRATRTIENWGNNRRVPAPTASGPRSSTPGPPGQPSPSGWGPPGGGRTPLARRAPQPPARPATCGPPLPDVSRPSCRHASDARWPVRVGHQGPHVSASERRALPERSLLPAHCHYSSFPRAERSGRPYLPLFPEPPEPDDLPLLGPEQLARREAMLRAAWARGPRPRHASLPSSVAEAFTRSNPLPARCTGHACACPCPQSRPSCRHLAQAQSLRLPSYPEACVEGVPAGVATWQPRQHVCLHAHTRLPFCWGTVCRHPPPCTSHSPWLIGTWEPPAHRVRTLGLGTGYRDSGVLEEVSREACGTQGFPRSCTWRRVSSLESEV
# measurement protocol: Electrophysiological assay at cloned NMDA receptor subunits expressed in Xenopus oocytes, 1A/2C
# Format: cell-based
# measurement conditions: cloned rat NMDA receptor in Xenopus oocytes, two-electrode voltage clamp, currents activated by glutamate and glycine; read-out: Subunits (IC50(μM)) 1A/2C
Structures can show the parent of a compound that is named as a salt.
Param label: returns 1 when IC50 < 70 µM, returns 0 otherwise, including exact equality.

                                   compound                     target_or_test_system  classification
0  Nc1ccc(OCCN2CCCCC2Cc2ccccc2)cc1 (stereo not drawn) [Example 22, dihydrobromide]  NMDA receptor subunits 1A/2C (NR1A+NR2C) (Rattus norvegicus, UniProt P35439+Q00961)               0
1  c1ccc(CC2CCCCN2CCOc2ccccc2)cc1 (stereo not drawn)  NMDA receptor subunits 1A/2C (NR1A+NR2C) (Rattus norvegicus, UniProt P35439+Q00961)               0
2  O=c1[nH]c2ccc(OCCN3CCCCC3Cc3ccccc3)cc2[nH]1 (stereo not drawn)  NMDA receptor subunits 1A/2C (NR1A+NR2C) (Rattus norvegicus, UniProt P35439+Q00961)               1
3  c1ccc(CC2CCCCN2CCCCOc2ccccc2)cc1 (stereo not drawn)  NMDA receptor subunits 1A/2C (NR1A+NR2C) (Rattus norvegicus, UniProt P35439+Q00961)               1
4  Br.c1ccc(CC2CCCCN2CCCOc2ccccc2)cc1 (stereo not drawn) [Example 7, hydrobromide]  NMDA receptor subunits 1A/2C (NR1A+NR2C) (Rattus norvegicus, UniProt P35439+Q00961)               1
5  CCOc1ccccc1OCC1CCCCN1CCCOc1ccccc1 (stereo not drawn)  NMDA receptor subunits 1A/2C (NR1A+NR2C) (Rattus norvegicus, UniProt P35439+Q00961)               0
6  Oc1ccc(OCCCCN2CCCCC2Cc2ccccc2)cc1 (stereo not drawn) [Example 28, hydrochloride]  NMDA receptor subunits 1A/2C (NR1A+NR2C) (Rattus norvegicus, UniProt P35439+Q00961)               0
7  Cc1ccccc1OCC(O)CN1CCCCC1Cc1ccccc1 (stereo not drawn)  NMDA receptor subunits 1A/2C (NR1A+NR2C) (Rattus norvegicus, UniProt P35439+Q00961)               0

###

# target or test system: NMDA receptor subunits 1A/2B (NR1A+NR2B) (Rattus norvegicus, UniProt P35439+Q00960)
# Sequence (Q00960 27-1482, other chains not shown): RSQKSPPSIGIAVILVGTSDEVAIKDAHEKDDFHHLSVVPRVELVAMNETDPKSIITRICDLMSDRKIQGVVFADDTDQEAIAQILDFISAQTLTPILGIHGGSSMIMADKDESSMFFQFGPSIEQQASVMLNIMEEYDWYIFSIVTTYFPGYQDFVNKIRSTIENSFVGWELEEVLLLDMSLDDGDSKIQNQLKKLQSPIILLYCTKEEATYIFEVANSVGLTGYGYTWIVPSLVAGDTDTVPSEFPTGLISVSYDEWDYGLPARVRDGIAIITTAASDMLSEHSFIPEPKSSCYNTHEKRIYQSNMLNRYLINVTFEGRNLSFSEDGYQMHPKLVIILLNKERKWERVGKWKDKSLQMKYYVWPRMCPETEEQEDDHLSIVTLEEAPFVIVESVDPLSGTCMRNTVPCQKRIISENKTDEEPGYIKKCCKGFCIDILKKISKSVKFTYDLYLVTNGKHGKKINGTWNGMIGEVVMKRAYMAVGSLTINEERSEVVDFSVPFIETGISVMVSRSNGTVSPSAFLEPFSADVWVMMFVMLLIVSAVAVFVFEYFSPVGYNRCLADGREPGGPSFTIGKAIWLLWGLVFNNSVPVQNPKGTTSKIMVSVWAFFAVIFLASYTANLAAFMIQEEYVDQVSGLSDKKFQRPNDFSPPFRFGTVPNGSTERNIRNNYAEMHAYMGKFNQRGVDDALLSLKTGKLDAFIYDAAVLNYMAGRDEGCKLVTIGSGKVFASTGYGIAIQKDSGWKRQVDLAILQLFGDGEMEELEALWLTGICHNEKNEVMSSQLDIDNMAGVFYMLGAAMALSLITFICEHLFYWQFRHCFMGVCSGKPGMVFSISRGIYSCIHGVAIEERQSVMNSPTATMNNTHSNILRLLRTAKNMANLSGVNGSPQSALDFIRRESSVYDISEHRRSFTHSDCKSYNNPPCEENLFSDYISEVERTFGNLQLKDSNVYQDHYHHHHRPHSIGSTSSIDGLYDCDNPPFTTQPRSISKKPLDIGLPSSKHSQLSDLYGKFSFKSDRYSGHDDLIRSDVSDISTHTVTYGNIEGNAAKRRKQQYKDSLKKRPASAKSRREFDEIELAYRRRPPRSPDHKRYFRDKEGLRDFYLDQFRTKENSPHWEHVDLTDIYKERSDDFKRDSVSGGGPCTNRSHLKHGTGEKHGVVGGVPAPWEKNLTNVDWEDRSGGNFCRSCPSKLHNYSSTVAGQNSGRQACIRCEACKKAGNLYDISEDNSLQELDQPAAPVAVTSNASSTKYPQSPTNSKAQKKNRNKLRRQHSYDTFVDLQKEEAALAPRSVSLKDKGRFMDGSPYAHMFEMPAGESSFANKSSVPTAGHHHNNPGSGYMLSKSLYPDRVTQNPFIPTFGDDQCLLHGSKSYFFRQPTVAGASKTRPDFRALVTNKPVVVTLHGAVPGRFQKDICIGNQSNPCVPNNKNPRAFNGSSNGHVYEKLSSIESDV
# measurement protocol: Electrophysiological assay at cloned NMDA receptor subunits expressed in Xenopus oocytes, 1A/2B
# Assay type: cell-based
# measurement conditions: cloned rat NMDA receptor in Xenopus oocytes, two-electrode voltage clamp, currents activated by glutamate and glycine; read-out: Subunits (IC50(μM)) 1A/2B
Counter-ions that a name gives are not always drawn.
measured property: IC50 (µM)

>>> df
                                    compound                     target_or_test_system  measured_property  obs_value
 0  Cl.Fc1ccc(OCCN2CCCCC2Cc2ccc(Cl)cc2)cc1 (stereo not drawn) [Example 24, hydrochloride]  NMDA receptor subunits 1A/2B (NR1A+NR2B) (Rattus norvegicus, UniProt P35439+Q00960)               IC50         22
 1  O=[N+]([O-])c1ccc(OCCN2CCCCC2Cc2ccccc2)cc1 (stereo not drawn) [Example 21, hydrobromide]  NMDA receptor subunits 1A/2B (NR1A+NR2B) (Rattus norvegicus, UniProt P35439+Q00960)               IC50         35
 2  c1ccc(CC2CCCCN2CCCCCOc2ccccc2)cc1 (stereo not drawn) [Example 20, hydrobromide]  NMDA receptor subunits 1A/2B (NR1A+NR2B) (Rattus norvegicus, UniProt P35439+Q00960)               IC50         22
 3  c1ccc(CCCCN2CCCCC2Cc2ccccc2)cc1 (stereo not drawn)  NMDA receptor subunits 1A/2B (NR1A+NR2B) (Rattus norvegicus, UniProt P35439+Q00960)               IC50          8
 4  O=c1[nH]c2ccc(OCCN3CCCCC3Cc3ccccc3)cc2[nH]1 (stereo not drawn)  NMDA receptor subunits 1A/2B (NR1A+NR2B) (Rattus norvegicus, UniProt P35439+Q00960)               IC50          5
 5  c1ccc(CC2CCCCN2CCOc2ccccc2)cc1 (stereo not drawn)  NMDA receptor subunits 1A/2B (NR1A+NR2B) (Rattus norvegicus, UniProt P35439+Q00960)               IC50         25
 6  Nc1ccc(OCCN2CCCCC2Cc2ccccc2)cc1 (stereo not drawn) [Example 22, dihydrobromide]  NMDA receptor subunits 1A/2B (NR1A+NR2B) (Rattus norvegicus, UniProt P35439+Q00960)               IC50          6
 7  Br.c1ccc(CC2CCCCN2CCCOc2ccccc2)cc1 (stereo not drawn) [Example 7, hydrobromide]  NMDA receptor subunits 1A/2B (NR1A+NR2B) (Rattus norvegicus, UniProt P35439+Q00960)               IC50         12
 8  Cl.Oc1ccc(OCCCN2CCCCC2Cc2ccccc2)cc1 (stereo not drawn) [Example 27, hydrochloride]  NMDA receptor subunits 1A/2B (NR1A+NR2B) (Rattus norvegicus, UniProt P35439+Q00960)               IC50         16
 9  Br.c1ccc(CCCN2CCCCC2Cc2ccccc2)cc1 (stereo not drawn) [Example 4, hydrobromide]  NMDA receptor subunits 1A/2B (NR1A+NR2B) (Rattus norvegicus, UniProt P35439+Q00960)               IC50         15
10  c1ccc(CC2CCCCN2Cc2ccccc2)cc1 (stereo not drawn) [Example 2, 1,2-Dibenzylpiperidine, hydrobromide]  NMDA receptor subunits 1A/2B (NR1A+NR2B) (Rattus norvegicus, UniProt P35439+Q00960)               IC50         19
11  Oc1ccc(OCCCCN2CCCCC2Cc2ccccc2)cc1 (stereo not drawn) [Example 28, hydrochloride]  NMDA receptor subunits 1A/2B (NR1A+NR2B) (Rattus norvegicus, UniProt P35439+Q00960)               IC50         10
12  Cc1ccccc1OCC(O)CN1CCCCC1Cc1ccccc1 (stereo not drawn)  NMDA receptor subunits 1A/2B (NR1A+NR2B) (Rattus norvegicus, UniProt P35439+Q00960)               IC50         50
13  c1ccc(CC2CCCCN2CCCCOc2ccccc2)cc1 (stereo not drawn)  NMDA receptor subunits 1A/2B (NR1A+NR2B) (Rattus norvegicus, UniProt P35439+Q00960)               IC50          8
14  CCOc1ccccc1OCC1CCCCN1CCCOc1ccccc1 (stereo not drawn)  NMDA receptor subunits 1A/2B (NR1A+NR2B) (Rattus norvegicus, UniProt P35439+Q00960)               IC50         35
